Measured on: elephant shark ERa3 (Callorhinchus milii, UniProt A0A1V1FR36)
Sequence (A0A1V1FR36 1-596): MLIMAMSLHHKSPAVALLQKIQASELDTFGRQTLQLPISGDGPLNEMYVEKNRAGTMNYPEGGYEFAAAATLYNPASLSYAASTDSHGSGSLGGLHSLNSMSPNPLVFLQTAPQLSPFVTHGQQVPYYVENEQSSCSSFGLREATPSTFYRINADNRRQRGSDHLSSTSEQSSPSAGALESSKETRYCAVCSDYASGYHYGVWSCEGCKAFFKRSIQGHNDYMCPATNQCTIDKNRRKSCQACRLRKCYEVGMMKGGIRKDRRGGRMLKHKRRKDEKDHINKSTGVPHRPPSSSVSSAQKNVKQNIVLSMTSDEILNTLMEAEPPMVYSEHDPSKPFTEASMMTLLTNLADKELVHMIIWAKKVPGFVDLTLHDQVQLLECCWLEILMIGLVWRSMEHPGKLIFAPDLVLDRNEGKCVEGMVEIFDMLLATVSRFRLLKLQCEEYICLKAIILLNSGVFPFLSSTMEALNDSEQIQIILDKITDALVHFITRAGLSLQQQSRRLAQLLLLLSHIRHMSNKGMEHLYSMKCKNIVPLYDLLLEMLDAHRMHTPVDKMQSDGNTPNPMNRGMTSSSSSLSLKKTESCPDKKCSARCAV
Condition summary: read-out: EC50 for transcriptional activation; ERa3 in HEK293, 4xERE luciferase reporter
Value kind: EC50
Answer shape: numeric part, then the unit.

// EC50 lookup, molecule = `C[C@]12CC[C@@H]3c4ccc(O)cc4CC[C@H]3[C@@H]1C[C@@H](O)[C@@H]2O` , result: 0.29 nM
